system: H69AR; assay: Reversal of drug resistance in human NCI-H69AR cells expressing MRP1; assay type: functional, cell-based
pEC50: −log10 of the molar value.

# structure, pEC50
measured = [
    ("N#Cc1cn(CCCc2ccccc2)c2c(N3CCN(CCc4c[nH]c5ccccc45)CC3)ncnc12", 6.02),
]

----------
// values below are reported inhibition at 3 h, 10 µM
molecular target: MRP1 (Homo sapiens, UniProt P33527); experiment: Inhibition of MRP1 in human NCI-H69AR cells at 10 uM incubated for 180 mins in presence of daunorubicin by flow cytometry analysis relative to control; format: cell-based; conditions: probe daunorubicin
Sequence (P33527 whole entry): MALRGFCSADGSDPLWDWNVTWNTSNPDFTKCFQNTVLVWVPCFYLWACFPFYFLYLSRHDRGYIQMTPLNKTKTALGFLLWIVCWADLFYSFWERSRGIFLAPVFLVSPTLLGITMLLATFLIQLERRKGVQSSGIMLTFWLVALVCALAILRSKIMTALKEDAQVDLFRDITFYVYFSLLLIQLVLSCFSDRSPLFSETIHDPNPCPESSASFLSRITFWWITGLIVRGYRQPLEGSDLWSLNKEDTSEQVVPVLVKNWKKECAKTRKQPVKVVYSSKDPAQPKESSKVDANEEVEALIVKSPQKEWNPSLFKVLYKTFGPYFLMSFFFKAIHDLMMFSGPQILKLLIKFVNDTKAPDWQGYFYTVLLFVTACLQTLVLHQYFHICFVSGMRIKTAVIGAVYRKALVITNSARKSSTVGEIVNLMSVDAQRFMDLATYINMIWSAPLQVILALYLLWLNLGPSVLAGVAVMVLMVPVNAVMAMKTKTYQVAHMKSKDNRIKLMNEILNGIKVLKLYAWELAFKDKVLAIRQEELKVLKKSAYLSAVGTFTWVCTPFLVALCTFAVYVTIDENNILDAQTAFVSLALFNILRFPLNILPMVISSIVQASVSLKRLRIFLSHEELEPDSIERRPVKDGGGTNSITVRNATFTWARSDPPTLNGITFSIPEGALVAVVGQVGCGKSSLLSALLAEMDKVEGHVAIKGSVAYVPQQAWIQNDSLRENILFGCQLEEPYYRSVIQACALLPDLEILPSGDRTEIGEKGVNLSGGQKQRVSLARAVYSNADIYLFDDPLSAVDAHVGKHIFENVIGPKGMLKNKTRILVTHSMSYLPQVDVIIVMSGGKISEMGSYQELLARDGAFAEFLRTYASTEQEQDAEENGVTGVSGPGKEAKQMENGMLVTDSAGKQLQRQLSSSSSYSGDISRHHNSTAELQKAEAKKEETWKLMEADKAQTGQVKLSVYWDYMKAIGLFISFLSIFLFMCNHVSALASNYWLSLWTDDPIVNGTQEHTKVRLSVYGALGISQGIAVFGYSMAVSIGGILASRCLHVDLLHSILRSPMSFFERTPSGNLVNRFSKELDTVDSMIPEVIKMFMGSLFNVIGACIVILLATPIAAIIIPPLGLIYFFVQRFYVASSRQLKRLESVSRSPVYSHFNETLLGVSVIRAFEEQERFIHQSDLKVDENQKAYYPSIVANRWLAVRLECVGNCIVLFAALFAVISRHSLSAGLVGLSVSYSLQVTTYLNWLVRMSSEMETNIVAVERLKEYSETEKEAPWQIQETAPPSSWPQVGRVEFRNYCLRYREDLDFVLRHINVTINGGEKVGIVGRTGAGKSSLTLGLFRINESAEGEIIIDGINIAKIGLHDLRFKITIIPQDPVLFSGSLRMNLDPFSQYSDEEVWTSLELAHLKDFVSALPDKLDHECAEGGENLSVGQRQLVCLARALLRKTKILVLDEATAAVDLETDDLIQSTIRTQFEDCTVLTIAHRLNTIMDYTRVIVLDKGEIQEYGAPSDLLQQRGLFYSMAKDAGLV
property-name: inhibition at 3 h, 10 µM

# structure, result
data = [
    ("c1ccc2c(CCN3CCN(c4ncnc5c4[nH]c4ccccc45)CC3)c[nH]c2c1", "> 25%"),
    ("N#Cc1cn(CCCc2ccccc2)c2c(N3CCN(CCc4c[nH]c5ccccc45)CC3)ncnc12", "> 25%"),
    ("N#Cc1c2n(c3c(N4CCN(c5ccccn5)CC4)ncnc13)CCCCC2", "25%"),
    ("N#Cc1cn(-c2ccccc2)c2c(N3CCN(Cc4ccc5c(c4)OCO5)CC3)ncnc12", "> 25%"),
    ("COc1ccccc1-n1cc(C#N)c2ncnc(N3CCN(CCc4ccccc4)CC3)c21", "> 25%"),
    ("c1ccc(CCN2CCN(c3ncnc4c3[nH]c3ccccc34)CC2)nc1", "> 25%"),
    ("N#Cc1c2n(c3c(N4CCN(CCc5c[nH]c6ccccc56)CC4)ncnc13)CCCC2", "25%"),
    ("c1ccc(CN2CCN(c3ncnc4c3[nH]c3ccccc34)CC2)cc1", "> 25%"),
    ("N#Cc1cn(CCc2ccccc2)c2c(N3CCN(Cc4ccc5c(c4)OCO5)CC3)ncnc12", "> 25%"),
    ("c1ccc(C(c2ccccc2)N2CCN(c3ncnc4c3[nH]c3ccccc34)CC2)cc1", "> 25%"),
    ("N#Cc1c2n(c3c(N4CCN(CCc5ccncc5)CC4)ncnc13)CCCCC2", "25%"),
    ("CCCn1cc(C#N)c2ncnc(N3CCN(CCc4c[nH]c5ccccc45)CC3)c21", "> 25%"),
    ("c1ccc(N2CCN(c3ncnc4c3[nH]c3ccccc34)CC2)cc1", "> 25%"),
    ("N#Cc1cn(CCc2ccccc2)c2c(N3CCN(CCc4c[nH]c5ccccc45)CC3)ncnc12", "> 25%"),
    ("CCOc1ccc(-n2cc(C#N)c3ncnc(N4CCN(CCc5ccccc5)CC4)c32)cc1", "> 25%"),
    ("CCOc1ccc(-n2cc(C#N)c3ncnc(N4CCN(Cc5ccccc5)CC4)c32)cc1", "> 25%"),
    ("N#Cc1c2n(c3c(N4CCN(Cc5ccc6c(c5)OCO6)CC4)ncnc13)CCCCC2", "> 25%"),
    ("c1ccc2c(c1)[nH]c1c(N3CCN(Cc4ccc5c(c4)OCO5)CC3)ncnc12", "> 25%"),
    ("COc1ccccc1-n1cc(C#N)c2ncnc(N3CCN(Cc4ccccc4)CC3)c21", "> 25%"),
    ("N#Cc1c2n(c3c(N4CCN(CCc5ccncc5)CC4)ncnc13)CCCC2", "25%"),
]

meta.source: ChEMBL document CHEMBL5260824
